Just for reference, PubChem BioAssay (NCI) is where these values come from.

# assay remarks: NCI Yeast Anticancer Drug Screen. Data for the bub3 strain (AID 167)
# test settings: S. cerevisiae bub3 mutant strain, at 50.0 µM, hits give high values
About 79,000 compounds went through this panel and 15% of them were active in at least one assay; those are over-represented in the sample as a whole. Activity calls are given as the source filed them. Rule as the data show it: active = growth inhibition above about 70%; inactive = the rest.
reported endpoint: growth inhibition

Query :: Query: growth inhibition; subject: Nc1ccccc1Nc1ccccc1C(=O)[O-].Nc1ccccc1Nc1ccccc1C(=O)[O-].[Cu+2]
Result :: -11.8% (inactive)

Query :: Suppose we examine the molecule Cc1ccc(C(=O)Nc2ccc(CP(=O)(O)O)cc2)cc1NC(=O)c1cccc(NC(=O)Nc2cccc(C(=O)Nc3cc(C(=O)Nc4ccc(CP(=O)(O)O)cc4)ccc3C)c2)c1 ; what growth inhibition value has been reported?
Result :: -1.55% (inactive)

Query :: Request the reported growth inhibition associated with CCCCCCCCCCCCCCCCS(=O)(=O)c1ccc(S(=O)(=O)F)cc1NC(=O)C(F)(F)F
Result :: 12.6% (inactive)

Query :: For the molecule O=C1Nc2ccccc2C12CNCS2 (stereo not given) , what growth inhibition is on record?
Result :: -12.8% (inactive)

Query :: Any idea what its growth inhibition is? The molecule is CN(C)C(=S)Oc1cc(Cl)c(S(=O)(=O)F)cc1Cl
Result :: 99.2% (active)

---

# assay remarks: NCI Yeast Anticancer Drug Screen. Data for the cln2 rad14 strain (AID 165);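 also: 0% = growth equal to vehicle treated cultures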
# test settings: S. cerevisiae cln2 rad14 strain, at 50.0 µM
# Experimental: Growth inhibition of yeast strains with defined genetic alterations is measured as a screen for potential anti-cancer activity. Selected strains with alterations in DNA damage repair or cell cycle control were exposed to compounds and growth inhibition was measured relative to vehicle treated controls. The strain used in this assay is cln2 rad14
About 79,000 compounds went through this panel and 15% of them were active in at least one assay; those are over-represented in the sample as a whole. The source made the active and inactive calls. No stated cut-off is given here; in the data, active means growth inhibition above about 70%; inactive means the rest.
Allowed answers: YES = active, NO = inactive

Query :: Outcome logged for O=C(COc1ccc(Cl)c(Cl)c1)Nc1ccc[n+](CC(=O)Nc2ccc(S(=O)(=O)F)cc2)c1 in this assay:
Result :: YES

Query :: Name the outcome recorded for CC(=O)OC1CCC2(C)C(=CCC3C4C/C(=C\N5CCCC5)C(=O)C4(C)CCC32)C1 (centres undefined) in the assay.
Result :: YES

Query :: Could you kindly confirm the outcome this assay logged for [CH3][Sb]([CH3])([CH3])([I])[I] ?
Result :: NO

Query :: Hi team, can someone confirm the assay call for c1cc2c(cc1[C@@H]1OC[C@@H]3[C@H]1CO[C@H]3c1ccc3c(c1)OCO3)OCO2 ?
Result :: NO

Query :: Which result was noted for this compound in the test: CCCCCCCC(N)CC(=O)O (centres undefined)
Result :: NO

Query :: Hey, what did the test say about O=C1CCCN1 ?
Result :: NO

Query :: Assay outcome for CC(=O)OC(C)(C)/C=C/C(=O)[C@](C)(O)[C@H]1[C@H](O)C[C@@]2(C)[C@@H]3CC=C4[C@@H](C[C@H](O)C(=O)C4(C)C)[C@]3(CO)C(=O)C[C@]12C : what was it?
Result :: NO

Query :: Please state the recorded outcome for this compound: CC(=O)C(CN1CCCCC1)C(c1ccccc1)c1c(O)c2ccccc2oc1=O (centres undefined)
Result :: NO

Query :: // return assay outcome for CC(C)OP(=O)(OC(C)C)C(C)(C)O
Result :: NO

Query :: Name the outcome recorded for CCCCCCCCCCC(O)[C@H]1CCC(C2CC[C@H]([C@H](O)CCCCCCCCCCC(O)CC3=CC(C)OC3=O)O2)O1 (some centres undefined) in the assay.
Result :: NO

Query :: Hi, sorry to bother you, what did the test record for [Cl][Sn]1([Cl])[CH2]CCCCCC[CH2][Sn]([Cl])([Cl])[CH2]CCCCCC[CH2]1 ?
Result :: NO

Query :: Status in this test for O=S(=O)(c1ccc(O)cc1)c1ccccc1O ?
Result :: NO

Query :: Field: outcome | Entry: CCOC(=O)C1=C(C)/C(=C\c2[nH]c(C)c(C(=O)OCC)c2C)N=C1C
Result :: NO

Query :: What did the test return for CCC1(O)CC(OC2CC(N(C)C)C(OC3CC(O)C(OC4CCC(=O)C(C)O4)C(C)O3)C(C)O2)c2c(cc3c(c2O)C(=O)c2c(O)ccc(O)c2C3=O)C1C(=O)OC (centres undefined) ?
Result :: YES

Query :: // return assay outcome for Nc1ccc(Cl)cc1.Nc1ccc(Cl)cc1.Nc1ccc(Cl)cc1.O=C([O-])C(=O)[O-].O=C([O-])C(=O)[O-].[H+].[Ru+5]
Result :: NO

Query :: Dear colleague, could you share the recorded outcome for CC1OC(=O)C(C(C)C)NC(=O)C(C(C)C)OC(=O)C(C(C)C)NC(=O)C(C)OC(=O)C(C(C)C)NC(=O)C(C(C)C)OC(=O)C(C(C)C)NC(=O)C(C)OC(=O)C(C(C)C)NC(=O)C(C(C)C)OC(=O)C(C(C)C)NC1=O (centres undefined) when you have a moment?
Result :: NO

Query :: Please indicate how the test categorized COC12CC3C4=CCOC5CC(=O)N6c7ccccc7C1(CCN2C4)C6C53 (centres undefined) .
Result :: NO

Query :: Hi, sorry to bother you, what did the test record for COc1ccc2c(c1OC(C)=O)-c1cc(OC(C)=O)cc3c1C(C2)N(C(=O)CN(CCCl)CCCl)CC3 (centres undefined) ?
Result :: NO

Query :: For O=C1NC(=O)C(=Cc2ccco2)C(=O)N1 , which call appears in the assay record?
Result :: NO
